- PROCEDURE_DETAILS: qHTS assay for identifying genotoxic compounds that show differential cytotoxicity against isogenic chicken DT40 cell lines with known DNA damage response pathways - wild type cell line (AID 743012); also: nearly all actives have a fitted effect of over 60% in size
- CONDITION_LABEL: DT40 wild type chicken cells viability, CellTiter-Glo, 40 h; series mostly up to 68.4 µM
Records with an inconclusive call do not appear. The source made the active and inactive calls. Calls follow the shape of the dose curve; as a rule, active = well fitted cell-killing curve with a large enough effect in the repeat runs; inconclusive = weak or mixed curves, or effect the other way; inactive = no such curve, though single readings can be large or run the other way.
Can you answer with just one of these options? class 1 for active, class 0 for inactive

Below are worked cases with known answers.
- COMPOUND: "OC1OC[C@@H](O)[C@H](O)[C@@H]1O (some centres undefined)"
  DISCRETE_LABEL: "class 0"
- COMPOUND: "COc1cc(C[C@@H]2NCCc3cc(O)c(O)cc32)cc(OC)c1OC"
  DISCRETE_LABEL: "class 0"
- COMPOUND: "CC(C)CCC[C@@H](C)[C@H]1CC(=O)C2=C3CC[C@H]4C[C@@H](O)CC[C@]4(C)[C@H]3CC[C@@]21C"
  DISCRETE_LABEL: "class 1"

API: the following record is the query input.
What call does the record list for `NCCCC[C@H](NC(=O)[C@@H]1CCCN1C(=O)[C@@H]1CSSC[C@H](N)C(=O)N[C@@H](Cc2ccccc2)C(=O)N[C@@H](Cc2ccccc2)C(=O)N[C@@H](CCC(N)=O)C(=O)N[C@@H](CC(N)=O)C(=O)N1)C(=O)NCC(N)=O` ?
class 0
